Taken from patent US20240239878A1.

Target: T1, human DLL3 on SHP-77 cells (human, UniProt Q9NYJ7 27-618)
T1 construct: also called DLL3-expressing cells (SHP-77)
T1 sequence: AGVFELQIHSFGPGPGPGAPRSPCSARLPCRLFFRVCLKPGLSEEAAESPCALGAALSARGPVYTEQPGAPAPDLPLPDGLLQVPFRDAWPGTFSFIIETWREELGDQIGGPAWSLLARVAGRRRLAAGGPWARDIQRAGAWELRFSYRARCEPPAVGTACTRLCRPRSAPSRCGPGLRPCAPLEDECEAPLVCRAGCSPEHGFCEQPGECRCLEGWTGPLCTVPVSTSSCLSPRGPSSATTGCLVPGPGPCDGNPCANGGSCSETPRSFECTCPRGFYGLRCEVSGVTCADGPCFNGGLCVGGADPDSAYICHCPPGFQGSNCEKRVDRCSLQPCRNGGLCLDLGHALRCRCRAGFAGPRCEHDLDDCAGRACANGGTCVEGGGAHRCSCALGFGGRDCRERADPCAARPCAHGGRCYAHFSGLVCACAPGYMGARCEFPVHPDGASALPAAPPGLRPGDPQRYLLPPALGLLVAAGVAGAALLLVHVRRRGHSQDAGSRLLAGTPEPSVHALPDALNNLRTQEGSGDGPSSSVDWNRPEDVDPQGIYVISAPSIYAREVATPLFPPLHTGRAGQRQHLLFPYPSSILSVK
Assay: flow cytometry, SHP-77 cells

BINDER: 39E2D11-2 mouse hybridoma-derived anti-DLL3 chimeric antibody (antibody, V domains shown) VH: QVQLKQSGPGLVQPSQSLSITCTVSGFSLTSYGVHWVRQSPGKGLEWLGVIWSGGSTDYNAAFISRLSISKDNPKSQVFFKMNSLQADDTAIYYCARENYYGNSLWFFDVWGTGTTVTVSS VL: DIVLTQSPATLSVTPGDSVSLSCRASQSINNNLHWYQQKSHESPRLLIKYVSQSISGIPSRFSGSGSGTDFTLTINSVETEDFGMYFCQQTNSWPLTFGAGTKLELK
MEASUREMENT UNIT: MFI
Top MFI: 193
//
BINDER: 47E12D12-2 mouse hybridoma-derived anti-DLL3 chimeric antibody (antibody, V domains shown) VH: EVQLVESGGGLVKPGGSLKLSCAASGFTFSDYGMHWVRQAPEKGLEWVAYISSGSSTIYYADTVKGRFTISRDNAKNTLFLQMTSLRSEDTAMYYCARNSRGFAYWGQGTLVTVSA VL: DIVLIQSPTIMSASPGEKVTMTCSASSSVSSMHWYQQKSGTSPKRWIYDTSKLASGVPARFSGSGSGTSYSLTISTMEAEDAATYYCQQWNSYHLTFGAGTKLELK
MEASUREMENT UNIT: MFI
Top MFI: 455
//
BINDER: 40G3D1 mouse hybridoma-derived anti-DLL3 chimeric antibody (antibody, V domains shown) VH: QVQLQQSGAELVKPGASVKISCKASGYAFSSQWMNWVKQRPGKGLEWIGQIYPGNGDTNYNGKFKGKATLTADKSSSTAYIQLSSLTSEDSAVYFCARWFAYWGQGTLVTVSA VL: DIVLTQSPVTLSVTPGDSVSLSCRASQSVRNNLHWYQQKSHESPRLLIKYVSQSISGIPSRFSGSGSGTDFTLSINSVETEDFGVYFCQQSNSWPLTFGAGTKLELK
MEASUREMENT UNIT: MFI
Top MFI: 369
//
BINDER: 48B6D7 mouse hybridoma-derived anti-DLL3 chimeric antibody (antibody, V domains shown) VH: QVQLQQPGAELVKPGTSVKLSCEASGYTFSNYWMQWVRQRPGQGLEWIGMILPNSDITNYNENFQTKATLTVDKSSSTAYMQLSSLTSEDSAVYYCARQARYSAMDYWGQGTSVTVSS VL: DIQMTQTTSSLSVSLGDRVTINCSASQGISNYLNWYQQKPDGTVKLLIYYTSNLHSGVPSRFSGSGSGTDYSLTISNLEPEDIATYYCQHYSKFPYTFGGGTKLEIK
MEASUREMENT UNIT: MFI
Top MFI: 990
